Listing of entries alongside the reported TGI.
# Test system: SNB-19 CNS
# measurement protocol: NCI tumour cell line growth inhibition, 48 h

COc1cc(N(CCC#N)CCC#N)ccc1/C(N=Nc1cccc(C)c1)=N\NC(=O)c1ccc(C)cc1	> 100 µM
Cc1ccc(S(=O)(=O)NC(=O)NCC(=O)O)cc1	> 100 µM

Entry CCOC(=O)C(C(=O)OCC)C(NC(=O)Nc1cc(C(F)(F)F)ccc1OC)(C(F)(F)F)C(F)(F)F ; TGI = > 100 µM

Entry Cc1ccc2nnc(NS(=O)(=O)c3cc(C)c(Cl)cc3S)n2n1 ; TGI = > 100 µM

Entry N=c1oc2ccc(Cl)cc2cc1C(=O)NC1CCCCC1 ; TGI = > 100 µM

Entry CCOc1cc[n+](C(=C=[N-])C#N)cc1 ; TGI = > 100 µM

Entry O=C1Cc2c([nH]c3cc(Br)ccc23)-c2ccccc2N1 ; TGI = 58 µM

Entry Cc1ccc2c(c1)C/C(=C\c1ccccc1C(=O)O)C2=O ; TGI = > 100 µM

Entry COc1cc[nH]c1/C=C1\C(=O)Nc2ccc([N+](=O)[O-])c(N3CC[C@@H](O)C3)c21 ; TGI = 5.68 µM

Entry COc1cc2c(cc1OC)C(=O)N1CCCC1C(=O)S2 (stereo unspecified) ; TGI = > 100 µM

Entry CC(C)[C@H]1NC(=O)[C@H]2N=C(O[C@@H]2C)[C@@H]2CCCN2C(=O)[C@H](Cc2ccccc2)NC(=O)[C@@H]2COC(=N2)[C@@H](Cc2ccccc2)NC(=O)[C@@H]2COC1=N2 ; TGI = > 100 µM

Entry CC1(C)O[C@@H](CP(c2ccc3ccccc3c2)c2ccc3ccccc3c2)[C@H](CP(c2ccc3ccccc3c2)c2ccc3ccccc3c2)O1 ; TGI = > 100 µM

Entry Cc1ccc(C(=O)N/N=C(\N=Nc2ccccc2)c2ccc(N(CCC#N)CCC#N)cc2C)cc1 ; TGI = > 100 µM

Entry COC(=O)/C=C/N1CC1 ; TGI = > 10 µM

Entry CCN(CC)c1ccc2cc(-c3csc(-c4ccc(N(C)C)cc4)n3)c(=O)oc2c1 ; TGI = > 100 µM

Entry CC1CC/C(=C\c2ccc(F)cc2)C2=C1C(c1ccc(F)cc1)n1c(s/c(=C\c3ccc(Cl)cc3)c1=O)=N2 (stereo unspecified) ; TGI = > 100 µM

Entry CSc1nc(-c2cccc(NC(=O)CCl)c2)c(C#N)c(=O)n1C ; TGI = 3.29 µM

Entry O=C(CC(C(=O)c1cccs1)c1ccccc1)c1ccccc1O (stereo unspecified) ; TGI = > 100 µM

Entry COc1ccc([Se]c2ccc(OC)cc2)cc1 ; TGI = > 100 µM

Entry O=[N+]([O-])c1ccc2nc(=S)[nH]n2c1 ; TGI = > 100 µM

Entry CCCCCCCCC(=O)NCCN(CCN)C(=O)CCCCCCCC ; TGI = 17.7 µM

Entry COC(=O)C(C(=O)C(=O)Nc1ccc(N)cc1[N+](=O)[O-])c1nc2ccc(Cl)cc2[nH]c1=O (stereo unspecified) ; TGI = > 100 µM

Entry CN1CCN(Cc2ccc(NC(=O)c3[nH]ncc3Nc3cc(OC4CCCC4)ncn3)cc2)CC1 ; TGI = 15.7 µM

----------
# Tested on: SW-620 colon
# measurement protocol: NCI tumour cell line growth inhibition, 48 h
Listing of entries alongside the reported TGI.

Worked cases, TGI given:
O=C(N1CCN(c2ccccc2)CC1)N(C(=O)C1(c2ccc(Cl)cc2)CCCC1)S(=O)(=O)c1ccccc1	> 100 µM
COc1ccc(CNC(=O)c2c(C)n([O-])c3cc(F)c(F)cc3[n+]2=O)cc1	13.1 µM
O=Cc1ccc2[nH]c(=O)oc2c1	> 100 µM

Entry CC(C)=C=CC(C)(C)NS(=O)(=O)NC(C)(C)C=C=C(C)C ; TGI = > 100 µM

----------
# System: UACC-257 melanoma
# measurement protocol: NCI tumour cell line growth inhibition, 48 h
Listing of entries alongside the reported TGI.

Worked cases, TGI given:
CCN(CC)c1ccc(N=C2C=CC(=C(C#N)C#N)c3ccccc32)c(C)c1	5.78 µM
CC(C)[C@H]1NC(=O)[C@H]2N=C(O[C@@H]2C)[C@@H]2CCCN2C(=O)[C@H](Cc2ccccc2)NC(=O)[C@@H]2COC(=N2)[C@@H](Cc2ccccc2)NC(=O)[C@@H]2COC1=N2	> 100 µM
Nc1cc(N)c2nc(-c3ccccc3)c(Oc3ccc(Cl)c(Cl)c3)nc2c1	87.2 µM
CC1CC2(C)CC(=O)C1C1C(=O)N(CCN3CCOCC3)C(=O)C12 (stereo not given)	> 100 µM
Cc1ccc2nnc(NS(=O)(=O)c3cc(C)c(Cl)cc3S)n2n1	> 100 µM

# COc1c(OC2OC(CO)C(O)C(O)C2O)cc2c(c1OC)-c1ccc(OC)c(=O)cc1[C@@H](NC(C)=O)CC2 (stereo not given in full) with UACC-257 melanoma: TGI is > 100 µM

# O=C1CC2OCC=C3CN4CCC56c7ccccc7N1C5C2C3CC46 (stereo not given) (tested in a mixture with another compound) with UACC-257 melanoma: TGI is > 50 µg/mL

# C=C(C)COC(=O)COCC(=O)OCC(=C)C with UACC-257 melanoma: TGI is > 100 µM

----------
# Test system: KM12 colon
# measurement protocol: NCI tumour cell line growth inhibition, 48 h
measurement name: TGI (µM)
Number in µM, nothing else.

O=c1cc(-c2cccc(Br)c2)[nH]c2cc3c(cc12)OCO3	25.4

From here, focus on the item given below.
Entry Cc1ccccc1NC(=O)CC(=O)n1nc(-c2ccccc2)c(N=Nc2ccc([N+](=O)[O-])cc2)c1-c1ccccc1 ; TGI = 61.5

----------
Listing of entries alongside the reported TGI.
# Tested on: K-562 leukemia
# measurement protocol: NCI tumour cell line growth inhibition, 48 h

Worked cases, TGI given:
CCOc1cc[n+](C(=C=[N-])C#N)cc1	> 100 µM
NC(N)=N/N=C/c1c(-c2ccc(Cl)cc2)nc2n1CCS2	20 µM
COc1ccc2c(c1)NC(=O)CN2c1nc(C)nc2ccccc12	> 100 µM
CC(=O)Oc1cc2c(n(C)c1=O)CCC2	> 100 µM

Entry N#CCCN(CCC#N)c1ccc(/C=C2\N=C(c3ccccc3)N(c3ccccc3)C2=O)cc1 ; TGI = > 100 µM

Entry O=C1OC(=O)C2C1C1C(c3ccccc3)=C(c3ccccc3)C2(O)C2C(=O)OC(=O)C12 (stereo unspecified) ; TGI = > 100 µM

----------
# Test system: DLD-1 colon
# measurement protocol: NCI tumour cell line growth inhibition, 48 h
measurement name: TGI

CCOc1ccccc1NC(=O)C(=O)c1c(O)c2ccc(O)cc2oc1=O	> 100 µM
COC1=CC(=O)C2C(C1=O)[C@@H]1c3ccccc3OC[C@H]21 (some centres not stated)	> 100 µM
CCCCCCCCC(=O)NCCN(CCN)C(=O)CCCCCCCC	10.4 µM

# CCc1cccc(CC)c1NC(=O)C1=CNC(C)=C(C(=O)Nc2c(CC)cccc2CC)C1c1ccc(O)c(OC)c1 (configuration not stated) with DLD-1 colon: TGI is > 100 µM

# CC(=O)Nc1ccc(OCC(O)CO)cc1 (configuration not stated) with DLD-1 colon: TGI is 54.1 µM

# Cc1ccccc1NC(=O)CC(=O)n1nc(-c2ccccc2)c(N=Nc2ccc([N+](=O)[O-])cc2)c1-c1ccccc1 with DLD-1 colon: TGI is > 100 µM

# CCCCCC/C(CC(=O)CCC(=O)NCCc1ccccc1)=N\NC(=O)c1ccc2ccccc2c1O with DLD-1 colon: TGI is > 100 µM

----------
# Tested on: DMS 273 small cell lung
# measurement protocol: NCI tumour cell line growth inhibition, 48 h
measurement name: TGI

Worked cases, TGI given:
Cc1ccc(SSCCCCS(=O)O)cc1	65.7 µM
CC1CC(c2ccc([N+](=O)[O-])cc2)=Nc2ccccc2S1=O (centres undefined)	42.7 µM
CC(=O)Nc1ccccc1S(=O)c1ccccc1 (centres undefined)	> 100 µM
ClCCCN1CCCCC1CCl (centres undefined)	> 100 µM
CN(C)c1ccc(/C=c2\sc3nnc(Cc4ccccc4)n3c2=O)cc1	> 100 µM

Entry C(=NCCN=Cc1cccc2ccccc12)c1cccc2ccccc12 ; TGI = > 100 µM

Entry CCCCCCC(=O)CC(=O)C(=O)Nc1ccccc1C ; TGI = > 100 µM

Entry C#CC1(O)CC(c2ccccc2)N(C)C(c2ccccc2)C1 (centres undefined) ; TGI = > 100 µM

Entry Cc1ccccc1NC(=O)CC(=O)n1nc(-c2ccccc2)c(N=Nc2ccc([N+](=O)[O-])cc2)c1-c1ccccc1 ; TGI = 49.4 µM

Entry CCOc1ccccc1NC(=O)C(=O)c1c(O)c2ccc(O)cc2oc1=O ; TGI = > 100 µM

Entry Cc1nc2c(s/c(=N\N)n2-c2ccccc2)c(=O)n1C ; TGI = > 100 µM

Entry O=c1[nH]c(Br)nc2c(N3CCCCC3)c[nH]c12 ; TGI = > 100 µM

Entry O=C(OCc1ccccc1)c1ccccc1-c1c2ccc(=O)cc-2oc2cc(OCc3ccccc3)ccc12 ; TGI = > 100 µM

Entry CC(=O)Nc1ccc(OCC(O)CO)cc1 (centres undefined) ; TGI = > 100 µM
